target: Opiate Receptor, delta (OP1, DOP) (Homo sapiens, UniProt P41143); test: Radioligand competition binding, Opiate Receptor, delta (OP1, DOP), [3H]-naltrindole, CHO cells
Sequence (P41143 whole entry): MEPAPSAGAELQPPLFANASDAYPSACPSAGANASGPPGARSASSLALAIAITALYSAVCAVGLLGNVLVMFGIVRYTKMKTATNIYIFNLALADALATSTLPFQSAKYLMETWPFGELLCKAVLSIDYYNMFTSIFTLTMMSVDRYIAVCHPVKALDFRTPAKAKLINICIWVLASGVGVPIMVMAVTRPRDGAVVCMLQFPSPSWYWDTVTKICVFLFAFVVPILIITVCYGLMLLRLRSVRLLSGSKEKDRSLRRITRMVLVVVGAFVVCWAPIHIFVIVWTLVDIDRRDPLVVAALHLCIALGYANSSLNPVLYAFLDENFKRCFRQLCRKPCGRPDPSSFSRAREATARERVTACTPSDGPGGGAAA
Would you kindly list IC50 for each of these compounds?
Numbers only, in µM.

* C=CCN1C[C@H](C)N([C@H](c2ccc(C(=O)N(CC)CC)cc2)c2cccc(O)c2)C[C@H]1C [(+) BW373U86, reference compound] | 0.001
* CCN(CC)C(=O)c1ccc(C(c2cccc(OCCOCCOCCOCCOCCOCCOCCOC)c2)N2CCN(Cc3ccccc3)CC2)cc1 (stereo not shown) | 0.106

// each listed compound needs a value for IC50
1. CCN(CC)C(=O)c1ccc(C(c2cccc(O)c2)N2CCN(Cc3ccccc3)CC2)cc1 (stereo not shown)
2. CCN(CC)C(=O)c1ccc(C(c2cccc(OCCOCCOCCOC)c2)N2CCN(Cc3ccccc3)CC2)cc1 (stereo not shown)

0.00133
0.212

###

target: Opiate Receptor, kappa (OP2, KOP) (Homo sapiens); construct: expressed in transfected cells; host or cells: HEK-293 cells, membrane preparation; test: biochemical; type: binding
Sequence (P41145 whole entry): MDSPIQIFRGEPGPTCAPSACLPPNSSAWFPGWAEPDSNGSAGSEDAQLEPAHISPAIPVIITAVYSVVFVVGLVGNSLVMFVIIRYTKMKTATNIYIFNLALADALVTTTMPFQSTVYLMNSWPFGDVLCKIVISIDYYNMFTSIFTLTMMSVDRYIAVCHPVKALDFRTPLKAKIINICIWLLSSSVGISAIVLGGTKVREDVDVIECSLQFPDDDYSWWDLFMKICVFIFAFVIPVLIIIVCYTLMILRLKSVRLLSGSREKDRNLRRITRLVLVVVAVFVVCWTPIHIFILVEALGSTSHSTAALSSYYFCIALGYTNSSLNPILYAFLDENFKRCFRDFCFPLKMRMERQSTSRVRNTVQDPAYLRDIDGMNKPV
measureName: pIC50
One number for each entry, as −log10 of the molar value.

• C=CCN1C[C@H](C)N([C@H](c2ccc(C(=O)N(CC)CC)cc2)c2cccc(O)c2)C[C@H]1C [(+) BW373U86, reference compound] = 6.65

Could you now consider this next compound?
Provide only the value of recorded pIC50 for CCN(CC)C(=O)c1ccc(C(c2cccc(O)c2)N2CCN(Cc3ccccc3)CC2)cc1 (centres unmarked) [N-benzyl-deallyl-demethyl-BW373U86] 5.63

###

Please provide measured pKi for the entries that follow.
target: Opiate Receptor, μ (OP3, MOP) (Homo sapiens, UniProt P35372); assay: Radioligand competition binding, Opiate Receptor, μ (OP3, MOP), [3H]-diprenorphine, CHO-K1 cells
Sequence (P35372 whole entry): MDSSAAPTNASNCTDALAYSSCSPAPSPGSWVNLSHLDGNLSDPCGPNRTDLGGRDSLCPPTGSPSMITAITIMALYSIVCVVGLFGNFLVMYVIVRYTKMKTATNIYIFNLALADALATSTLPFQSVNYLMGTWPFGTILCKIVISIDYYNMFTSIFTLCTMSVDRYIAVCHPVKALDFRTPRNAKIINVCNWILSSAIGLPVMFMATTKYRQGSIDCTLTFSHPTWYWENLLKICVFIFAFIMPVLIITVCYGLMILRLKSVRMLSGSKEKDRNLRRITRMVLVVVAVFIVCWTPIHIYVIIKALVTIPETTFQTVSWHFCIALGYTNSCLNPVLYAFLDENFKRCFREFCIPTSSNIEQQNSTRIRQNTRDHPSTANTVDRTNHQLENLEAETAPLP
One number for each entry, as −log10 of the molar value.

* CCN(CC)C(=O)c1ccc(C(c2cccc(O)c2)N2CCN(Cc3ccccc3)CC2)cc1 (centres unmarked) | 5.95

Give the reported value of pKi for this record: C=CCN1C[C@H](C)N([C@H](c2ccc(C(=O)N(CC)CC)cc2)c2cccc(O)c2)C[C@H]1C [(+) BW373U86, reference compound] 6.90

###

target: UniProt P35372; experiment: Radioligand competition binding, Opiate Receptor, μ (OP3, MOP), [3H]-diprenorphine, CHO-K1 cells; settings: read-out: IC50
measureName: pIC50
Numbers only, as −log10 of the molar value.

Can you give me pIC50 for all of these, one by one?
1. C=CCN1CCN(C(c2ccc(C(=O)N(CC)CC)cc2)c2cccc(O)c2)CC1 (stereo not drawn)
2. Br.Br.C=CCN1CC(C)N(C(c2ccc(C(=O)N(CC)CC)cc2)c2cccc(O)c2)CC1C (racemic) [(+/−) BW373U86 dihydrobromide, reference compound]

[4.96, 6.18]

Give the value of pIC50 reported for the following: CCN(CC)C(=O)c1ccc([C@H](c2cccc(O)c2)N2C[C@@H](C)N(CCOCCOCCOC)C[C@@H]2C)cc1 (racemic) [mPEG3-N-(+/−)-BW373U86] 5.03

###

molecular target: Opiate Receptor, kappa (OP2, KOP) (Homo sapiens); construct: expressed in transfected cells; host or cells: HEK-293 cells, membrane preparation; test: biochemical; type: binding; details: read-out: Ki
Exercise: state measured pKi for each of the molecules provided.
One number for each entry, as −log10 of the molar value.

• Br.Br.C=CCN1CC(C)N(C(c2ccc(C(=O)N(CC)CC)cc2)c2cccc(O)c2)CC1C (racemic) [(+/−) BW373U86 dihydrobromide, reference compound] = 6.65

Now for a further molecule.
Item C=CCN1CCN(C(c2ccc(C(=O)N(CC)CC)cc2)c2cccc(O)c2)CC1 (centres unmarked) : provide pKi 6.40

###

Assign IC50 to each entry below.
molecular target: Opiate Receptor, delta (OP1, DOP) (Homo sapiens, UniProt P41143); assay: Radioligand competition binding, Opiate Receptor, delta (OP1, DOP), [3H]-naltrindole, CHO cells; conditions: read-out: IC50
One number for each entry, in nM.

- CCN(CC)C(=O)c1ccc([C@H](c2cccc(O)c2)N2C[C@@H](C)N(CCOCCOCCOC)C[C@@H]2C)cc1 (racemic) [mPEG3-N-(+/−)-BW373U86]: 764
- C=CCN1CCN(C(c2ccc(C(=O)N(CC)CC)cc2)c2cccc(OCCOCCOCCOC)c2)CC1 (stereo not drawn) [mPEG3-demethyl-BW373U86]: 6050
- C=CCN1C[C@H](C)N([C@H](c2ccc(C(=O)N(CC)CC)cc2)c2cccc(OCCOCCOCCOC)c2)C[C@H]1C [mPEG-3 + BW373U86]: 723
- Br.Br.C=CCN1CC(C)N(C(c2ccc(C(=O)N(CC)CC)cc2)c2cccc(O)c2)CC1C (racemic) [(+/−) BW373U86 dihydrobromide, reference compound]: 3.26
- C=CCN1CCN(C(c2ccc(C(=O)N(CC)CC)cc2)c2cccc(OCCOCCOCCOCCOCCOCCOCCOC)c2)CC1 (stereo not drawn) [mPEG7-demethyl-BW373U86]: 3470

Continue with the next molecule.
Please look at C=CCN1CCN(C(c2ccc(C(=O)N(CC)CC)cc2)c2cccc(O)c2)CC1 (stereo not drawn) [demethyl-BW373U86] and tell me its recorded IC50 on Opiate Receptor, delta (OP1, DOP) (Homo sapiens, UniProt P41143). 7.09

###

Provide the recorded Ki for the entries that follow.
target: UniProt:P41143; assay: Opiate δ receptor binding (Table 1); conditions: Table 1; read-out: Opiate δ, Ki

* C=CCN1C[C@H](C)N([C@H](c2ccc(C(=O)N(CC)CC)cc2)c2cccc(OCCOCCOCCOC)c2)C[C@H]1C (racemic) [mPEG-3 ± BW373U86] | ~415 nM
* C=CCN1C[C@H](C)N([C@H](c2ccc(C(=O)N(CC)CC)cc2)c2cccc(OCCOCCOCCOCCOCCOCCOCCOC)c2)C[C@H]1C (racemic) [mPEG-7 ± BW373U86] | ~1330 nM
* C=CCN1C[C@H](C)N([C@H](c2ccc(C(=O)N(CC)CC)cc2)c2cccc(OCCOCCOCCOCCOCCOCCOCCOC)c2)C[C@H]1C [mPEG-7 + BW373U86] | 864 nM

Now consider a different compound.
Assign Ki to the following record: C=CCN1C[C@H](C)N([C@H](c2ccc(C(=O)N(CC)CC)cc2)c2cccc(OCCOCCOCCOC)c2)C[C@H]1C [mPEG-3 + BW373U86] 491 nM

###

Assign pKi to each entry below.
target: Opiate Receptor, delta (OP1, DOP) (Homo sapiens); test: Radioligand competition binding, Opiate Receptor, delta (OP1, DOP), [3H]-naltrindole, CHO cells; conditions: read-out: Ki
Give bare numbers, as −log10 of the molar value.

Consider the reported pKi for these compounds:
* Br.Br.C=CCN1CC(C)N(C(c2ccc(C(=O)N(CC)CC)cc2)c2cccc(O)c2)CC1C (racemic) [(+/−) BW373U86 dihydrobromide, reference compound] | 8.94
* C=CCN1CCN(C(c2ccc(C(=O)N(CC)CC)cc2)c2cccc(O)c2)CC1 (stereo not drawn) [demethyl-BW373U86] | 8.60
* CCN(CC)C(=O)c1ccc([C@H](c2cccc(O)c2)N2C[C@@H](C)N(CCOCCOCCOC)C[C@@H]2C)cc1 (racemic) [mPEG3-N-(+/−)-BW373U86] | 6.57
* C=CCN1CCN(C(c2ccc(C(=O)N(CC)CC)cc2)c2cccc(OCCOCCOCCOC)c2)CC1 (stereo not drawn) [mPEG3-demethyl-BW373U86] | 5.67

Respectfully, I request pKi for each entry included below.
1. C=CCN1C[C@H](C)N([C@H](c2ccc(C(=O)N(CC)CC)cc2)c2cccc(OCCOCCOCCOC)c2)C[C@H]1C [mPEG-3 + BW373U86]
2. C=CCN1CCN(C(c2ccc(C(=O)N(CC)CC)cc2)c2cccc(OCCOCCOCCOCCOCCOCCOCCOC)c2)CC1 (stereo not drawn) [mPEG7-demethyl-BW373U86]

1: 6.59; 2: 5.91

###

target: Opiate Receptor, delta (OP1, DOP) (Homo sapiens, UniProt P41143); experiment: Radioligand competition binding, Opiate Receptor, delta (OP1, DOP), [3H]-naltrindole, CHO cells
Binary call on nH: yes (1) from 1 upward, no (0) beneath that.

Use these answered entries as a reference point.
• CCN(CC)C(=O)c1ccc(C(c2cccc(OCCOCCOCCOC)c2)N2CCN(Cc3ccccc3)CC2)cc1 (centres unmarked) [mPEG3-N-benzyl-deallyl-demethyl-BW373U86] = yes (1)
• C=CCN1C[C@H](C)N([C@H](c2ccc(C(=O)N(CC)CC)cc2)c2cccc(O)c2)C[C@H]1C [(+) BW373U86, reference compound] = no (0)
• C=CCN1CCN(C(c2ccc(C(=O)N(CC)CC)cc2)c2cccc(O)c2)CC1 (centres unmarked) [demethyl-BW373U86] = yes (1)

Please look at the following molecule next.
Exam item: decide whether the reported nH for CCN(CC)C(=O)c1ccc(C(c2cccc(OCCOCCOCCOCCOCCOCCOCCOC)c2)N2CCN(Cc3ccccc3)CC2)cc1 (centres unmarked) [mPEG7-N-benzyl-deallyl-demethyl-BW373U86] is at least 1. yes (1)
